Values from paper PMC7696940

Examples of substances with documented IC50 NIH-3T3 follow.
Test system: NIH-3T3 cells
Assay: Cytotoxicity, MTT assay
Format: cell-based, mouse
Details: 24 h, peptide up to 250 µg/mL, concentration causing 50% cell growth inhibition, mean of triplicate assays
Where no end group is shown, it is not given here.
Write the value in µg/mL as a bare number.

- substance: "WRWWKWW-NH2 [Peptide W7]"
  system: "NIH-3T3 cells"
  output unit: "µg/mL"
  IC50 NIH-3T3: 250

IC50 NIH-3T3 of RWWKWW-NH2 [Peptide R6] on NIH-3T3 cells? 250

----------
Tested on: E. coli ATCC25922
Type: cell-based, Escherichia coli
Settings: MHB, 100 mM NaCl; triplicate, mode
Where no end group is shown, it is not given here.
Examples of substances with documented MIC E. coli, With 100mM NaCl follow.
Write the value in µg/mL as a bare number.

- substance: "WRWWKWWK-NH2 [Peptide W8]"
  system: "E. coli ATCC25922"
  MIC E. coli, With 100mM NaCl (µg/mL): 4
- substance: "RWWKWWK-NH2 [Peptide R7]"
  system: "E. coli ATCC25922"
  MIC E. coli, With 100mM NaCl (µg/mL): 250
- substance: "RRRRWRWWRWWRR-NH2 [Peptide R8]"
  system: "E. coli ATCC25922"
  MIC E. coli, With 100mM NaCl (µg/mL): 64
- substance: "RWWKWW-NH2 [Peptide R6]"
  system: "E. coli ATCC25922"
  MIC E. coli, With 100mM NaCl (µg/mL): 250
- substance: "WWRWWKWW-NH2 [dWW, diastereomeric counterpart of WW]"
  system: "E. coli ATCC25922"
  MIC E. coli, With 100mM NaCl (µg/mL): 8

Would you kindly share the measured MIC E. coli, With 100mM NaCl for RKRWWRWWKWWKR-NH2 [dP1, diastereomeric counterpart of P1] ? 16

Would you kindly share the measured MIC E. coli, With 100mM NaCl for WRWWKWW-NH2 [Peptide W7] ? 4

Would you kindly share the measured MIC E. coli, With 100mM NaCl for WWRWWKWW-NH2 [WW] ? 8

Would you kindly share the measured MIC E. coli, With 100mM NaCl for RKRWWRWWKWWKR-NH2 [Peptide P1] ? 16

Would you kindly share the measured MIC E. coli, With 100mM NaCl for WRWWKWW-NH2 [dW7, diastereomeric counterpart of W7] ? 8

----------
System: S. aureus ATCC25923
Type: cell-based, Staphylococcus aureus
Settings: MHB, 0 mM NaCl; triplicate, mode
Where no end group is shown, it is not given here.
Examples of substances with documented MIC S. aureus, No NaCl follow.
Write the value in µg/mL as a bare number.

Would you kindly share the measured MIC S. aureus, No NaCl for RWWKWW-NH2 [Peptide R6] ? 16

Would you kindly share the measured MIC S. aureus, No NaCl for RWWKWWK-NH2 [Peptide R7] ? 16

Would you kindly share the measured MIC S. aureus, No NaCl for WRWWKWWK-NH2 [Peptide W8] ? 8

Would you kindly share the measured MIC S. aureus, No NaCl for RKRWWRWWKWWKR-NH2 [dP1, diastereomeric counterpart of P1] ? 16

Would you kindly share the measured MIC S. aureus, No NaCl for WRWWKWW-NH2 [Peptide W7] ? 8

Would you kindly share the measured MIC S. aureus, No NaCl for WRWWKWW-NH2 [dW7, diastereomeric counterpart of W7] ? 8

Would you kindly share the measured MIC S. aureus, No NaCl for WWRWWKWW-NH2 [WW] ? 8

Would you kindly share the measured MIC S. aureus, No NaCl for RRRRWRWWRWWRR-NH2 [Peptide R8] ? 64

Would you kindly share the measured MIC S. aureus, No NaCl for WWRWWKWW-NH2 [dWW, diastereomeric counterpart of WW] ? 8

Would you kindly share the measured MIC S. aureus, No NaCl for RKRWWRWWKWWKR-NH2 [Peptide P1] ? 16
